system: T-cell receptor pathway (clone J32-6D4); conditions: Homo sapiens, T-cell, read-out: IC50 of the inhibition of PHA activation of beta-lactamase expression
pIC50: −log10 of the molar value.
property-name: pIC50

// O=C(O)/C=C/c1ccc2ccccc2n1 : pIC50 value = ~6.70

* * *

tested on: T-cell receptor pathway (clone J32-6D4); conditions: 10 microM chemical; 1 microgram/ml of PHA for 18 hours
property-name: % Inhibition of PHA activation of Clone J32-6D4 (%)
Answers are plain numbers, in %.

Previously resolved entries follow.
C[C@H]1O[C@@H](O[C@H]2[C@@H](O)C[C@H](O[C@H]3[C@@H](O)C[C@H](O[C@H]4CC[C@@]5(C)[C@H](CC[C@@H]6[C@@H]5CC[C@]5(C)[C@@H](C7=CC(=O)OC7)CC[C@]65O)C4)O[C@@H]3C)O[C@@H]2C)C[C@H](O)[C@@H]1O
77
CCCCC1C(=O)N(c2ccccc2)N(c2ccc(O)cc2)C1=O (stereo not drawn)
75
CN(C)c1ccc(C(=C2C=CC(=[N+](C)C)C=C2)c2ccc(N(C)C)cc2)cc1
73
[O-][n+]1ccccc1SSc1cccc[n+]1[O-]
70
C[C@@H]1O[C@@H](O[C@H]2C[C@@H](O)[C@]3(CO)[C@H]4[C@H](O)C[C@]5(C)[C@@H](C6=CC(=O)OC6)CC[C@]5(O)[C@@H]4CC[C@]3(O)C2)[C@H](O)[C@H](O)[C@H]1O
50

Turning now to a further compound:
The reported % Inhibition of PHA activation of Clone J32-6D4 value, T-cell receptor pathway (clone J32-6D4), for Nc1nc2nc[nH]c2c(=S)[nH]1 reads 50

src = patent US20020025940A1
